experiment: Inhibition of Klebsiella sp. MS 92-3 CutC assessed as TMA formation by LC-MS/MS; design: species or system Klebsiella pneumoniae
quantity_kind: pIC50
One number for each entry, as −log10 of the molar value.

pIC50 for C[N+](C)(C)CC=O [BETAINE ALDEHYDE] ? 3.67

Shifting focus to the compound that follows.
pIC50 for `CN1CC=C[C@H](O)C1` ? 5.40

====

test: Inhibition of Escherichia coli MS 69-1 CutC assessed as TMA formation by LC-MS/MS
Would you mind telling me the reported IC50 of each entry?
Write the quantity with the unit trailing the number.

IC50 for `CN1CC=C[C@H](O)C1` ? 22 µM

Shifting focus to the compound that follows.
IC50 for `C[N+](C)(C)CC=O` ? 465 µM
